For each entry below, report its IC50 value.
target_or_system: hNav1.7 (Homo sapiens, UniProt Q15858)
Sequence (Q15858 1-1977 isoform Q15858-3): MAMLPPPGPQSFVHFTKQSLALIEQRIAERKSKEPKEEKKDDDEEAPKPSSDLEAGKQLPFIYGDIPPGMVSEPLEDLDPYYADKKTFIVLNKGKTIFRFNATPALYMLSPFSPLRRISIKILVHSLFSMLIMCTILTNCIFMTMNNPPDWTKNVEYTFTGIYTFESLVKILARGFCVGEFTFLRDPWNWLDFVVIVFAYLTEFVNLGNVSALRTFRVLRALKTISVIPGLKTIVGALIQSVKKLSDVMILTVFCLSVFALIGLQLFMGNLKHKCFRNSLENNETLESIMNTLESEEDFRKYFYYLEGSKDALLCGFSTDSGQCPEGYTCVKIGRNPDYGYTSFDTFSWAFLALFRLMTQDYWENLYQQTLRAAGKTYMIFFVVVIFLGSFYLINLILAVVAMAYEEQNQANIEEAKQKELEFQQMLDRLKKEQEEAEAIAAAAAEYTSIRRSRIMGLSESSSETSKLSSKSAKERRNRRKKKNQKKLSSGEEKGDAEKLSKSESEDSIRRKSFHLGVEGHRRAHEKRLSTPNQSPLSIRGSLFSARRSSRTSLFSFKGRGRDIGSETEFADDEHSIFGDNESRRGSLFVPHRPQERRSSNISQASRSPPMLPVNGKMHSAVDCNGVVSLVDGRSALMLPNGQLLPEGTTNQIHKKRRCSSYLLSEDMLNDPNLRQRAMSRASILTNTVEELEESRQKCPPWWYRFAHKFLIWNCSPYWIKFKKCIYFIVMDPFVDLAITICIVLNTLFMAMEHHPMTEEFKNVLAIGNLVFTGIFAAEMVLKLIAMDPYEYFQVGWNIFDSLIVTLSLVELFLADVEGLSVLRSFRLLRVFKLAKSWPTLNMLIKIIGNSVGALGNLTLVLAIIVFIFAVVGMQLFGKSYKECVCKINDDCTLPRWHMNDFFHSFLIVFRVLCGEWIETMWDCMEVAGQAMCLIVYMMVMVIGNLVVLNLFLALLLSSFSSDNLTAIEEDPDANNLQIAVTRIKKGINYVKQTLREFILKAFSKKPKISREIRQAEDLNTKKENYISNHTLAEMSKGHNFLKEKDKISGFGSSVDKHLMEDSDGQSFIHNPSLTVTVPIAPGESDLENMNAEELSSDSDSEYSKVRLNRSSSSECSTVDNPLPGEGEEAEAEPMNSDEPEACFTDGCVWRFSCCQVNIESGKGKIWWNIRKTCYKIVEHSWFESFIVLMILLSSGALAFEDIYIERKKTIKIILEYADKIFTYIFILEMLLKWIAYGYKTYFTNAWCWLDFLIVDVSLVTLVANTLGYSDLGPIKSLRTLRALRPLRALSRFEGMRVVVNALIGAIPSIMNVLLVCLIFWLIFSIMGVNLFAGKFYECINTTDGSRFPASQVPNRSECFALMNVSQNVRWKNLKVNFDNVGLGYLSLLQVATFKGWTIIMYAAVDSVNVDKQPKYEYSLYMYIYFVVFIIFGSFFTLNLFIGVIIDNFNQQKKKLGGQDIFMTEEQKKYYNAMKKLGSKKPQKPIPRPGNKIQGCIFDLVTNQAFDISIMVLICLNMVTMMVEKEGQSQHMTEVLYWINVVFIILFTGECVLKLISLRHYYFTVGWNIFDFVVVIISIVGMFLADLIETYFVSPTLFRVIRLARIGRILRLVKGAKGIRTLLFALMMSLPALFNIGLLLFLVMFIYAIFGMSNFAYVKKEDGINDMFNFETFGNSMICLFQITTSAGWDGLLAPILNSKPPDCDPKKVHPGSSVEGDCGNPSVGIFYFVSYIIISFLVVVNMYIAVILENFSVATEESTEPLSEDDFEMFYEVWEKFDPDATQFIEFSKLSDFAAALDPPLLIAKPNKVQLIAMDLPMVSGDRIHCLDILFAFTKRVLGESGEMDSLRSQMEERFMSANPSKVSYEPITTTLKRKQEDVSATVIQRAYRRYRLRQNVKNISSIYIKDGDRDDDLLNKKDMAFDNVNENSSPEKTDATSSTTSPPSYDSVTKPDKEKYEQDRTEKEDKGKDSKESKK
Sequence (Q07699 19-218 partner): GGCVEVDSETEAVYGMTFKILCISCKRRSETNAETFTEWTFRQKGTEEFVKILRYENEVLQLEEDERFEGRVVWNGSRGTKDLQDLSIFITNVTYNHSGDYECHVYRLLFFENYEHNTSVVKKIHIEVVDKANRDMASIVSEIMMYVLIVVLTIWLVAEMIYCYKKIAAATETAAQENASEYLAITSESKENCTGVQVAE
assay_details: Tritiated compound binding (LBA) to membranes from cells expressing hNav1.7 and the β1 subunit, competitive binding
recorded_conditions: competitive binding vs 100 pM [3H]compound, 18 h, room temperature, membranes with hNav1.7 and β1 subunit
Experimental: Tritiated Compound Binding to Membranes Isolated from Cells that Heterologously Express hNav1.7 and the β1 Subunit Preparation of membranes containing recombinantly expressed sodium channels: Frozen recombinant cell pellets were thawed on ice and diluted to 4 times the cell pellet weight with ice cold 50 mM Tris HCl, pH 7.4 buffer. […] Protein concentrations were determined by Bradford Assay and the membranes were stored at −80° C. […]
Counter-ions that a name gives are not always drawn.
Param answer (str): number followed by unit.

// query Answer with the recorded IC50 of O=C(O)[C@@H]1CCCN1C(=O)c1cc(C2CC2)c(CN2[C@@H]3CC[C@H]2C[C@@H](Oc2cc(Cl)cc(OC(F)(F)F)c2)C3)cc1F [Example 19, trifluoroacetic acid salt] only.
// result 443 nM

// query Note IC50 for the molecule shown: C[C@@]1(COc2cc(F)c(C(=O)N3CCC[C@H]3C(=O)O)cc2C2CC2)CCN(c2cc(C(F)(F)F)c(Cl)cn2)C1
// result 110 nM

// query Using the record for O=C(O)[C@@H]1CCCN1C(=O)c1cc(C2CC2)c(COc2cc(Cl)cc(Cl)c2)s1 , state its measured IC50.
// result 72 nM

// query Supply recorded IC50 for O=C(O)[C@@H]1CCCN1C(=O)c1cc(C2CC2)c(O[C@H]2C3CC4CC2C[C@](F)(C4)C3)cc1F here.
// result 4500 nM

// query Dear colleague, please send me the reported IC50 for C[C@@H](c1cc(Cl)cc(Cl)c1)N1CCC(C#N)(COc2cc(F)c(C(=O)N3C[C@H](F)C[C@H]3C(=O)O)cc2C2CC2)CC1 (single isomer, unassigned) [Example 126b] when you can.
// result 100 nM

// query Supply measured IC50 of C[C@H]1CCN(C(=O)c2cc(C3CC3)c(OCC3(C)CN([C@@H](c4ccccc4)c4cc(Cl)cc(Cl)c4)C3)cc2F)[C@@H]1C(=O)O (single isomer, unassigned) in your reply.
// result 12 nM

// query Give the measured IC50 for O=C(O)[C@@H]1CCCN1C(=O)c1cc(C2CC2)c(OCC23CCCCC2C3)cc1F (stereo partly shown)
// result 170 nM

// query Answer with the recorded IC50 of C[C@@H]1SCN(C(=O)c2cc(C3CC3)c(OCC34CC5CC(CC(C5)C3)C4)cc2F)[C@H]1C(=O)O [Example 142b] only.
// result 760 nM

// query Report measured IC50; entry is O=C(O)[C@@H]1CCCN1C(=O)c1cc(Cl)c(COc2ccc(OC(F)(F)F)c(Cl)c2)cc1F
// result 345 nM

// query Give reported IC50 value for O=C(O)[C@@H]1C[C@@H](F)CN1C(=O)c1cc(C2CC2)c(OCC2CCN(Cc3cc(Cl)cc(C(F)(F)F)c3)CC2)cc1F
// result 65 nM

// query State its IC50 for this molecule: CC[C@@H]1CCN(C(=O)c2cc(C3CC3)c(OCC34CC5CC(CC(C5)C3)C4)cc2F)[C@H]1C(=O)O [Example 168b]
// result 180 nM

// query Provide only the value of recorded IC50 for O=C(O)[C@@H]1CCCN1C(=O)c1cc(F)c(OCC23CC4CC(CC(C4)C2)C3)cc1F
// result 6100 nM

// query Hello, please tell me recorded IC50 for this one: O=C(O)[C@@H]1CCCN1C(=O)c1cc(C2CC2)c(OC[C@H]2CCN(C(c3ccccc3)c3ccccc3)C2)cc1F (single isomer, unassigned) [Example 139a]
// result 650 nM
